Target: estrogen receptor (Sus scrofa, UniProt Q29040)
Experiment: biochemical
Conditions: IC50(uM), concentration required to decrease bound [^3H]estradiol by 50%; average of three experiments
The entries below come with measured IC50 values attached.
Give just the numeric value; µM need not be written.

Worked examples, 3 compounds total:
| compound | system under test | unit info | assay result |
| --- | --- | --- | --- |
| CCN(CC)CCOc1ccc(/C(=C(/CCCBr)c2ccccc2)c2ccccc2)cc1 [Compound XI (trans)] | estrogen receptor (Sus scrofa, UniProt Q29040) | µM | 0.2 |
| CCN(CC)CCOc1ccc(/C(=C(\CCCI)c2ccccc2)c2ccccc2)cc1 [X (cis), N,N-diethyl-iodomethyltamoxifen] | estrogen receptor (Sus scrofa, UniProt Q29040) | µM | 3 |
| CCN(CC)CCOc1ccc(/C(=C(\CCCCl)c2ccccc2)c2ccccc2)cc1 [Compound XII (Cis)] | estrogen receptor (Sus scrofa, UniProt Q29040) | µM | 4 |

API: the following record is the query input.
May I ask what IC50 has been recorded for CCN(CC)CCOc1ccc(/C(=C(\CCCBr)c2ccccc2)c2ccccc2)cc1 [Compound XI (Cis)] ?
0.8

---

Tested on: MCF7
Assay: Inhibition of MCF7 breast tumor cell growth in vitro (72 hour exposure, MTT tetrazolium dye assay)
Format: cell-based, human
Conditions: Homo sapiens, MCF7, 72 h, read-out: IC50 Dose (µM)
The entries below come with measured IC50 values attached.
Give just the numeric value; µM need not be written.

| molecule | system under test | IC50 [µM] |
| --- | --- | --- |
| CCN(CC)CCOc1ccc(/C(=C(\CCCBr)c2ccccc2)c2ccccc2)cc1 [Compound XI (Cis)] | MCF7 | 0.62 |

API: the following record is the query input.
May I ask what IC50 has been recorded for CCN(CC)CCOc1ccc(/C(=C(/CCCBr)c2ccccc2)c2ccccc2)cc1 [Compound XI (trans)] ?
4.9

---

Biological target: estrogen receptor (Sus scrofa)
Test: biochemical
Conditions: IC50(uM), concentration required to decrease bound [^3H]estradiol by 50%; average of three experiments
measurement type: IC50 (µM)
Give just the numeric value; µM need not be written.

Worked examples, 2 compounds total:
| compound | IC50, µM |
| --- | --- |
| CCN(CC)CCOc1ccc(/C(=C(/CCCI)c2ccccc2)c2ccccc2)cc1 [X (trans)] | 2 |
| CCN(CC)CCOc1ccc(/C(=C(\CCCO)c2ccccc2)c2ccccc2)cc1 [III (Cis), N,N-diethyl-hydroxymethyltamoxifen] | 10 |

May I ask what IC50 has been recorded for CCN(CC)CCOc1ccc(/C(=C(/CCCO)c2ccccc2)c2ccccc2)cc1 [III (trans), N,N-diethyl-hydroxymethyltamoxifen] ?
7

---

Molecular target: estrogen receptor (Sus scrofa, UniProt Q29040)
Sequence (Q29040 1-595): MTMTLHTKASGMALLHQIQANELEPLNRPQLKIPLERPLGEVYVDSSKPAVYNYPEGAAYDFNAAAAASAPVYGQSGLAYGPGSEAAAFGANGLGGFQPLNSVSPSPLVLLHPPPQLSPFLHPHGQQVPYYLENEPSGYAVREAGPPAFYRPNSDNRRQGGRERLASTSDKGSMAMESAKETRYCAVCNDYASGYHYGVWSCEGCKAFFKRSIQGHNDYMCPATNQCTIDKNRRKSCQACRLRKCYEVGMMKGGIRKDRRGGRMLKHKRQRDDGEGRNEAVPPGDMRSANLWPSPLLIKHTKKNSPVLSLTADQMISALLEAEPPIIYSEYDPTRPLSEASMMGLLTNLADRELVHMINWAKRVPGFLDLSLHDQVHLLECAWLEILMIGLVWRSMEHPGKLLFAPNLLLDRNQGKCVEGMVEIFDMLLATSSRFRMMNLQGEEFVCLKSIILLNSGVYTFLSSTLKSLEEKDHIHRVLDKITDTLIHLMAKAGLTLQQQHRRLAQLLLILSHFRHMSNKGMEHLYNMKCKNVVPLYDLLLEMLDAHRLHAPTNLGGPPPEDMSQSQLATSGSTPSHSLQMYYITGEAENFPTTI
Experiment: biochemical
Settings: IC50(M), [^3H]estradiol 5 nM; 4°C
The entries below come with measured IC50 values attached.
Give just the numeric value; M need not be written.

Worked examples, 3 compounds total:
| compound | IC50 / M |
| --- | --- |
| CCN(CC)CCOc1ccc(/C(=C(\CCCI)c2ccccc2)c2ccccc2)cc1 [X (cis), N,N-diethyl-iodomethyltamoxifen] | 3e-06 |
| CCN(CC)CCOc1ccc(/C(=C(\CCCO)c2ccccc2)c2ccccc2)cc1 [III (Cis), N,N-diethyl-hydroxymethyltamoxifen] | 1e-05 |
| CCN(CC)CCOc1ccc(/C(=C(/CCCO)c2ccccc2)c2ccccc2)cc1 [III (trans), N,N-diethyl-hydroxymethyltamoxifen] | 7e-06 |

API: the following record is the query input.
May I ask what IC50 has been recorded for CCN(CC)CCOc1ccc(/C(=C(/CCCI)c2ccccc2)c2ccccc2)cc1 [X (trans)] ?
2e-06

---

Assay: In vivo biodistribution of N,N-diethyl-[^18F]fluoromethyltamoxifen in rats
Conditions: kidney; rat, iv; 4h; primed with 60 μg of estradiol for 3 days; read-out: KIDNEY
measurement type: tissue uptake at 4 h
Units required after the number.

May I ask what tissue uptake at 4 h has been recorded for CCN(CC)CCOc1ccc(C(=C(CCC[18F])c2ccccc2)c2ccccc2)cc1 [N,N-DIETHYL-[^18F]FLUOROMETHYLTAMOXIFEN] ?
0.796 %ID/g

---

Target: UniProt:Q29040
Test: biochemical
Conditions: IC-50, text value, Example 5
measurement type: pIC50
Just so you know, pIC50 here is -log10 of the concentration in molar units; reply with that number alone.

May I ask what pIC50 has been recorded for CCN(CC)CCOc1ccc(C(=C(CCCBr)c2ccccc2)c2ccccc2)cc1 ?
6.70

---

Test: In vivo biodistribution of N,N-diethyl-[^18F]fluoromethyltamoxifen in rats
Conditions: bone; rat, iv; 2h; primed with 60 μg of estradiol for 3 days; read-out: BONE
measurement type: tissue uptake at 2 h (%ID/g)
Give just the numeric value; %ID/g need not be written.

May I ask what tissue uptake at 2 h has been recorded for CCN(CC)CCOc1ccc(C(=C(CCC[18F])c2ccccc2)c2ccccc2)cc1 [N,N-DIETHYL-[^18F]FLUOROMETHYLTAMOXIFEN] ?
0.653

---

Test: In vivo biodistribution of N,N-diethyl-[^18F]fluoromethyltamoxifen in rats
Details: muscle; rat, iv; 2h; primed with 60 μg of estradiol for 3 days; read-out: MUSCLE
measurement type: tissue uptake at 2 h (%ID/g)
Give just the numeric value; %ID/g need not be written.

May I ask what tissue uptake at 2 h has been recorded for CCN(CC)CCOc1ccc(C(=C(CCC[18F])c2ccccc2)c2ccccc2)cc1 [N,N-DIETHYL-[^18F]FLUOROMETHYLTAMOXIFEN] ?
0.151

---

Assay: In vivo biodistribution of N,N-diethyl-[^18F]fluoromethyltamoxifen in rats
Details: liver; rat, iv; 2h; primed with 60 μg of estradiol for 3 days; read-out: LIVER
measurement type: tissue uptake at 2 h (%ID/g)
Give just the numeric value; %ID/g need not be written.

May I ask what tissue uptake at 2 h has been recorded for CCN(CC)CCOc1ccc(C(=C(CCC[18F])c2ccccc2)c2ccccc2)cc1 [N,N-DIETHYL-[^18F]FLUOROMETHYLTAMOXIFEN] ?
4.54

---

Target: estrogen receptor (Sus scrofa, UniProt Q29040)
RBA vs 10: less than gives 1 (yes); not less than gives 0 (no).

Example results:
| molecule | system under test | classification |
| --- | --- | --- |
| CCN(CC)CCOc1ccc(/C(=C(/CCCCl)c2ccccc2)c2ccccc2)cc1 [Compound XII (trans)] | estrogen receptor (Sus scrofa, UniProt Q29040) | 0 (no) |
| CCN(CC)CCOc1ccc(/C(=C(/CCCI)c2ccccc2)c2ccccc2)cc1 [X (trans)] | estrogen receptor (Sus scrofa, UniProt Q29040) | 0 (no) |
| CCN(CC)CCOc1ccc(/C(=C(\CCCO)c2ccccc2)c2ccccc2)cc1 [III (Cis), N,N-diethyl-hydroxymethyltamoxifen] | estrogen receptor (Sus scrofa, UniProt Q29040) | 1 (yes) |
| CCN(CC)CCOc1ccc(/C(=C(\CCCCl)c2ccccc2)c2ccccc2)cc1 [Compound XII (Cis)] | estrogen receptor (Sus scrofa, UniProt Q29040) | 1 (yes) |

Next:
API: query returns whether the molecule falls strictly under 10 in RBA. Query: CCN(CC)CCOc1ccc(/C(=C(/CCCO)c2ccccc2)c2ccccc2)cc1 [III (trans), N,N-diethyl-hydroxymethyltamoxifen]
1 (yes)

---

Test: In vivo biodistribution of N,N-diethyl-[^18F]fluoromethyltamoxifen in rats
Conditions: liver; rat, iv; 4h; primed with 60 μg of estradiol for 3 days; read-out: LIVER
measurement type: tissue uptake at 4 h
Units required after the number.

May I ask what tissue uptake at 4 h has been recorded for CCN(CC)CCOc1ccc(C(=C(CCC[18F])c2ccccc2)c2ccccc2)cc1 [N,N-DIETHYL-[^18F]FLUOROMETHYLTAMOXIFEN] ?
4.21 %ID/g
